- Test system: mouse plasma stability, LC/MS/MS, 180 min
- protocol details: mouse plasma degradation, percent remaining – biochemical, LC/MS/MS, 180 min, dry powder, ADME assay, late-stage follow-up (AID 1592)
- measurement conditions: at 1 µM; active compounds read low
property label: percent remaining (%)
Expressed in %, but write only the number.

Request: Provide measured percent remaining value, entry: C=CCn1c(SCC(=O)c2ccc(O)c(O)c2)nnc1-c1ccccc1OC
Result: 93.2
